# EC50 per record follows
System: Thoracic aorta
Experiment: Vasorelaxant activity in Wistar rat thoracic aortic ring assessed as inhibition of 80 mM KCl-induced contraction
Type: functional, tissue-based
endpoint_label: EC50 (µM)

- CCNC(=S)NC(=O)c1ccccc1OC: 57.1
- CCCOc1ccccc1C(=O)NC(=S)Nc1ccccc1: 121
- COc1ccccc1C(=O)NC(=S)NC(C)C: 38.1
- CCC(C)NC(=O)NC(=O)c1ccccc1OCc1ccccc1 (stereo unspecified): 45.6
- CCNC(=O)NC(=O)c1ccccc1OCc1ccccc1: 36.6

###

Organism: Rattus norvegicus
Assay: Activation of ATP-sensitive potassium channel in Wistar rat pancreatic islets assessed as inhibition of 16.7 mM of glucose-induced insulin secretion by measuring residual insulin secretion at 50 uM after 90 mins relative to control
endpoint_label: Activity (%)

• CCC(C)NC(=O)NC(=O)c1ccccc1OCc1ccccc1 (stereo unspecified) = 21.4
• CCNC(=S)NC(=O)c1ccccc1OC = 99.6
• CC1=Nc2ccc(Cl)cc2S(=O)(=O)N1 [DIAZOXIDE] = 28.8
• COc1ccccc1C(=O)NC(=S)NC(C)C = 105
• CCCOc1ccccc1C(=O)NC(=S)Nc1ccccc1 = 44.9
• CCNC(=O)NC(=O)c1ccccc1OCc1ccccc1 = 113

###

Test system: Thoracic aorta
Assay: Vasorelaxant activity in Wistar rat thoracic aortic ring assessed as inhibition of 30 mM KCl-induced contraction
Format: functional, tissue-based
endpoint_label: EC50 (µM)

• CCNC(=O)NC(=O)c1ccccc1OCc1ccccc1 = 17.2
• COc1ccccc1C(=O)NC(=S)NC(C)C = 15.7
• CCC(C)NC(=O)NC(=O)c1ccccc1OCc1ccccc1 (stereo not given) = 15.3
• CCNC(=S)NC(=O)c1ccccc1OC = 17.4
• CCCOc1ccccc1C(=O)NC(=S)Nc1ccccc1 = 12

###

Assay: Dissociation constant, pKa of the compound by UV-Visible spctrophotometry
Assay type: physicochemical
# pKa per record follows
endpoint_label: pKa

* COc1ccc(Cl)cc1S(=O)(=O)NC(=O)NC(C)C | 5.65
* COc1ccc(F)cc1S(=O)(=O)NC(=O)NC(C)C | 5.52
* COc1ccc(Cl)cc1S(=O)(=O)NC(=O)Nc1ccccc1 | 4.5
* COc1ccc(Cl)cc1S(=O)(=O)NC(=S)NC(C)C | 5.74
* COc1ccc(Cl)cc1S(=O)(=O)NC(=O)NC1CCCCC1 | 5.46

###

Test system: Thoracic aorta
Assay: Vasorelaxant activity in Wistar rat thoracic aortic ring assessed as inhibition of KCl-induced contraction in presence of glibenclamide
Assay type: functional, tissue-based
endpoint_label: EC50

• COc1ccccc1C(=O)NC(=S)NC(C)C = 28.1 µM
• CCNC(=O)NC(=O)c1ccccc1OCc1ccccc1 = 38 µM
• CCC(C)NC(=O)NC(=O)c1ccccc1OCc1ccccc1 (stereo not drawn) = 20.2 µM
